tested on: IGROV1 ovarian; experiment: NCI tumour cell line growth inhibition, 48 h
reported.endpoint: TGI

molecule	TGI
CCCCCNC(=O)c1c(O)[nH]c(=S)[nH]c1=O	> 100 µM
CCCCCCCCCCCCCCCCCC(=O)OCC(COC1OC(CS(=O)(=O)O)C(O)C(O)C1O)OC(=O)CCCCCCCCCCCCCCCCC (stereo not drawn)	> 100 µM

Turning now to a further record.
Which TGI value is on record for `CS(=O)(=O)c1ccc(Oc2cc(F)cc(C#N)c2)c2c1[C@H](O)C(F)(F)C2` ?
> 100 µM

----------
Measured TGI values are reported for all entries that follow.
system: OVCAR-5 ovarian; assay: NCI tumour cell line growth inhibition, 48 h
Where a SMILES comes first, the peptide text is derived from it. [ ]: non-standard residue; d: D form. The star is where a group is joined. NMeF = CN[C@@H](Cc1ccccc1)C(=O)O; NMeV = CN[C@H](C(=O)O)C(C)C; Boc = CC(C)(C)OC(=O)*; OBn = c1ccc(CO*)cc1

molecule	measurement
Cc1nn(-c2ccccc2)c2nc3c(nc12)C1=NCCN1C(c1ccc(Cl)cc1)N3 (centres undefined)	24.3 µM
CCCCCCCCCCCCCCCCCC(=O)OCC(C[As](=O)(O)O)OC(=O)CCCCCCCCCCCCCCCCC (centres undefined)	> 100 µM
CNS(=O)(=O)c1ccc2[nH]c(O)c(C3=Nc4ccccc4C3=O)c2c1	> 100 µM
CC(C)[C@@H](C(=O)N1CCC[C@H]1C(=O)OCc1ccccc1)N(C)C(=O)[C@H](C(C)C)N(C)C(=O)[C@H](Cc1ccccc1)N(C)C(=O)[C@H](NC(=O)OC(C)(C)C)C(C)C (Boc-[dV][NMeF][NMeV][NMeV]P-OBn)	> 100 µM
O=[N+]([O-])c1cc(-c2nnc(C34CC5CC(CC(C5)C3)C4)o2)cc([N+](=O)[O-])c1	> 100 µM
Cc1ccc2ccc3ccc(C)nc3c2n1	> 100 µM
CCOC(=O)N[C@@H]1C2CC(=O)C(O2)[C@@H]1OC (some centres undefined)	> 100 µM
NC1=CC(=O)c2nc3ccccc3c3ccnc1c23	62 µM

Turning now to a further record.
Which TGI value is on record for `NC(=NCCN1CCCCCCC1)NO` ?
> 100 µM

----------
Measured TGI values are reported for all entries that follow.
tested on: SK-MEL-5 melanoma; test: NCI tumour cell line growth inhibition, 48 h
I only need the number, in µM, no unit after it.

molecule	measurement
O=[N+]([O-])c1ccc(N/N=C(\c2ccccc2)c2ccccn2)nc1	26.5
COc1ccc2c(c1)/C(=C\c1c(Cl)n(C)c3ccccc13)C(=O)N2	7
O=C1c2cc([N+](=O)[O-])cc3cc([N+](=O)[O-])cc(c23)C(=O)N1CCCNCCNCCCN1C(=O)c2cc([N+](=O)[O-])cc3cc([N+](=O)[O-])cc(c23)C1=O	1.97

Give SK-MEL-5 melanoma TGI for `CC(C)(O)CO/N=C1\C(c2c(O)[nH]c3ccccc23)=Nc2ccccc21`
2.28

Give SK-MEL-5 melanoma TGI for `COc1ccc(OC)c(/C=C2\COc3ccc(O)c(O)c3C2=O)c1`
3.28

Give SK-MEL-5 melanoma TGI for `Cn1ccnc1C(=O)/C=C/c1ccc(CC(=O)Nc2ccc(F)cc2)cc1`
8.09

All figures here come from PubChem BioAssay (NCI).
